Provenance of the data: patent US11434242B2

Exercise: for every item that follows, state its recorded Plasma (0.01 μM), activity in % of control.
assayTarget: Dopamine beta hydroxylase (Homo sapiens)
Construct: 125 μl of plasma; tissue Instituto Português do Sangue Transplantação; host or cells: human plasma from healthy donors
Sequence (P09172 40-617 limits assumed): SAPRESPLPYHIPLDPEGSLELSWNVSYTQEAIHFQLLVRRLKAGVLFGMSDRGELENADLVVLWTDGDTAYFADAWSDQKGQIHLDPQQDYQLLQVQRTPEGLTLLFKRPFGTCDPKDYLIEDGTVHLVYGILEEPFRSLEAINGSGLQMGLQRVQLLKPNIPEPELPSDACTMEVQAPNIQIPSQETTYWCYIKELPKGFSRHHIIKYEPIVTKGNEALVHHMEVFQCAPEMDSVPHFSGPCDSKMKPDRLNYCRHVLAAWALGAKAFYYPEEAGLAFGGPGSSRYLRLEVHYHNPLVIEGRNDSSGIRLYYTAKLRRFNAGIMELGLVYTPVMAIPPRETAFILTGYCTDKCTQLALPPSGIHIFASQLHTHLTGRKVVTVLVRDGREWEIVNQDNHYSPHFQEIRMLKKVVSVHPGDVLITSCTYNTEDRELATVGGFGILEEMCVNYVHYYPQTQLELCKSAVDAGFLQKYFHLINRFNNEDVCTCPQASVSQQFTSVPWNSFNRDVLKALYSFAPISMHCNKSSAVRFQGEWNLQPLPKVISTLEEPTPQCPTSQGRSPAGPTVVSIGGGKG
assayProtocol: Dopamine beta hydroxylase activity in human plasma
Format: biochemical
recordedConditions: inhibitor 0.01 μM

In: For the compound CN(C(=O)Cc1c2n(c(=S)n1C)C[C@@H](c1c(F)ccc(F)c1F)C2)C1CCOC1 (some centres unmarked) , what Plasma (0.01 μM), activity in % of control is on record?
Out: 97.4 % of control

Value sought for every listed compound: Plasma (0.01 μM), activity in % of control.
1. Cn1c(CC(=O)NC2CCCC2)c2n(c1=S)C[C@@H](c1cc(Cl)ccc1F)C2
2. Cn1c(CC(=O)O)c2n(c1=S)C[C@@]1(c3cc(Cl)ccc3F)C[C@@H]21
3. Cn1c(CC(N)=O)c2n(c1=S)C[C@H](c1c(F)ccc(Cl)c1F)C2
4. Cn1c(CC(=O)N[C@H]2CCOC2)c2n(c1=S)C[C@H](c1cc(F)cc(F)c1)C2

Out:
1: 107.8 % of control; 2: 83.3 % of control; 3: 96.0 % of control; 4: 83.5 % of control
